- Test system: Sodium-dependent noradrenaline transporter (Homo sapiens, UniProt P23975)
- Sequence (P23975 whole entry): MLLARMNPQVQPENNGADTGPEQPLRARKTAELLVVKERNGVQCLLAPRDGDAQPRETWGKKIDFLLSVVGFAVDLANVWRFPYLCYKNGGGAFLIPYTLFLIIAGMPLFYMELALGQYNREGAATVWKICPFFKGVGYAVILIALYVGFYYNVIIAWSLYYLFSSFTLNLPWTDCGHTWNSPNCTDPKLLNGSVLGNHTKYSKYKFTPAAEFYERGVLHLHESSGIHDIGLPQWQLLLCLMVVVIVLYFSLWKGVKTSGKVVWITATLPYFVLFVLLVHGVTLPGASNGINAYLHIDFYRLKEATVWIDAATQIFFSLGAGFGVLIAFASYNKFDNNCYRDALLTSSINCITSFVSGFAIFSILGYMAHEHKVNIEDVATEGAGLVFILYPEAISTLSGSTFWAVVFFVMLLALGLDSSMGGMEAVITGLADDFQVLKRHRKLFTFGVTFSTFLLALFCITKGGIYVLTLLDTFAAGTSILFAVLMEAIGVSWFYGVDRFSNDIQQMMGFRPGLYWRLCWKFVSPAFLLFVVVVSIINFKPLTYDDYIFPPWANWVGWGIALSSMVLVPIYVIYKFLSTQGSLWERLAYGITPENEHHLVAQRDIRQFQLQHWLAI
- Test description: Inhibition of human NET at 1 uM
Exercise: for every item that follows, state its recorded inhibition.
Your answer is read as %, so omit the unit and give the number.

State the measured inhibition (Sodium-dependent noradrenaline transporter (Homo sapiens, UniProt P23975)) of CN(C)C1CC=C(c2c[nH]c3ccc(Br)cc23)CC1 (stereo not drawn)
99

# return inhibition for CN(C)C1CC=C(c2c[nH]c3ccc(Cl)cc23)CC1 (stereo not drawn) , test system: Sodium-dependent noradrenaline transporter (Homo sapiens, UniProt P23975)
34

Provide Sodium-dependent noradrenaline transporter (Homo sapiens, UniProt P23975) inhibition reading for CN1CC=C(c2c[nH]c3ccc(C#N)cc23)CC1 .
15

Report the value of inhibition obtained on Sodium-dependent noradrenaline transporter (Homo sapiens, UniProt P23975) for CN(C)C1CC=C(c2c[nH]c3ccc(C#N)cc23)CC1 (stereo not drawn) .
90

// fetch inhibition for CN(C)C1CC=C(c2c[nH]c3ccc(F)cc23)CC1 (stereo not drawn) ; system: Sodium-dependent noradrenaline transporter (Homo sapiens, UniProt P23975)
35

Provide measured inhibition on Sodium-dependent noradrenaline transporter (Homo sapiens, UniProt P23975) for CN1CC=C(c2c[nH]c3ccc([N+](=O)[O-])cc23)CC1 please.
27

Name the value of inhibition reported for CN(C)C1CC=C(c2c[nH]c3ccccc23)CC1 (stereo not drawn) when tested on Sodium-dependent noradrenaline transporter (Homo sapiens, UniProt P23975).
70

Provide inhibition, tested on Sodium-dependent noradrenaline transporter (Homo sapiens, UniProt P23975), for CN(C)C1CC=C(c2c[nH]c3ccc([N+](=O)[O-])cc23)CC1 (stereo not drawn) .
81
